biological target: Neprilysin (Homo sapiens); assay: Compound was evaluated for inhibition of enkephalin degrading enzyme, neutral endopeptidase (NEP)
Sequence (P08473 whole entry): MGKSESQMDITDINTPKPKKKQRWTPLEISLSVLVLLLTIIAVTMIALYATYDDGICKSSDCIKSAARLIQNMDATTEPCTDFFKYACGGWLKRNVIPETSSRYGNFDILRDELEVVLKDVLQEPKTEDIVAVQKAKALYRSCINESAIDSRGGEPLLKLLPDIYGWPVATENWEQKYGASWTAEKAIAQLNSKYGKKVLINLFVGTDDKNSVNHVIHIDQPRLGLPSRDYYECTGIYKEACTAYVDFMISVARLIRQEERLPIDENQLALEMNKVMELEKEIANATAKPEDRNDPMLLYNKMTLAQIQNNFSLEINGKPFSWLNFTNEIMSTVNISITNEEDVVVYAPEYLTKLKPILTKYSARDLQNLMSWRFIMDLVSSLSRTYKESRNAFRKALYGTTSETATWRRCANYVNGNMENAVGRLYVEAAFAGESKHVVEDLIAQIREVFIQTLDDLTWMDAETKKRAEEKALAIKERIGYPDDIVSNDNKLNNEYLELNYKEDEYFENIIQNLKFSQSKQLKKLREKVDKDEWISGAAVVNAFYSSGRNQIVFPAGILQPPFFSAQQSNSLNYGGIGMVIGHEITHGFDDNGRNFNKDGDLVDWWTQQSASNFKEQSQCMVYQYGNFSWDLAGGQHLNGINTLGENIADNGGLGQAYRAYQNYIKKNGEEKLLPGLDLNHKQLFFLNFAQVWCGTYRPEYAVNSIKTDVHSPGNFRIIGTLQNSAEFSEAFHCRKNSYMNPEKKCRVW
measure.name: pKi
Numbers only, as −log10 of the molar value.

In: Sample CSCC[C@H](N)CSSC[C@@H](Cc1ccccc1)C(=O)NC(Cc1ccccc1)C(=O)OCc1ccccc1 (stereo partly specified) — what was its pKi?
Out: 8.70
